- target-system: A128T mutant HIV-1 IN (Human immunodeficiency virus type 1 group M subtype B, UniProt P12497, A1275T)
- assay-explanation: HTRF-based aberrant IN multimerization assay, A128T mutant IN
pIC50: −log10 of the molar value.

compound	pIC50
Cn1c(C(OC(C)(C)C)C(=O)O)c(-c2ccc3c(c2)CCCO3)c2ccccc21 (stereo not shown)	4.80

----------
- target-system: UniProt:P12497
pIC50: −log10 of the molar value.

molecule	pIC50
Cn1c(C(OC(C)(C)C)C(=O)O)c(-c2ccc3c(c2)CCCO3)c2ccccc21 (stereo not shown)	4.79

----------
Below: a set of entries, each annotated with reported IC50.
- target-system: HIV-1 integrase (IN) (Human immunodeficiency virus type 1 group M subtype B, UniProt P12497)
assay-metric: IC50

compound	result
Cn1c(CC(OC(C)(C)C)C(=O)O)c(-c2ccccc2)c2ccccc21 (centres unmarked)	> 100 µM
COc1ccc(-n2c(C(OC(C)(C)C)C(=O)O)c(C)c3ccccc32)cc1 (centres unmarked)	> 100 µM
